- Measured on: UniProtKB O00408
- Protocol: PDE selectivity IMAP FP assay, human PDE2A1
- Assay type: biochemical
- Experimental setup: Human PDE2; Lab B; read-out: Human PDE2 Ki (nM) Lab B
Below, each entry is listed alongside its reported Ki.

[
  {
    "Compound": "CC(C)C(c1ccc(C(F)(F)F)cc1)n1nc(CO)c2c(=O)[nH]c(N(C)C)nc21 (single isomer, unassigned) [Example 65]",
    "Ki, nM": 0.069
  },
  {
    "Compound": "COCc1nn([C@@H](C)c2ccc(C(F)(F)F)cc2)c2nc(O)[nH]c(=O)c12 [Example 304]",
    "Ki, nM": 46
  },
  {
    "Compound": "C[C@@H](c1ccc(C(F)(F)F)cc1)n1nc(CF)c2c(=O)[nH]c(N3CCCC3)nc21 [Example 226]",
    "Ki, nM": 0.22
  }
]

###

Below, each entry is listed alongside its reported Ki.
- Measured on: Rhesus PDE2A3 (Macaca mulatta)
- Sequence (B3VTJ2 1-941): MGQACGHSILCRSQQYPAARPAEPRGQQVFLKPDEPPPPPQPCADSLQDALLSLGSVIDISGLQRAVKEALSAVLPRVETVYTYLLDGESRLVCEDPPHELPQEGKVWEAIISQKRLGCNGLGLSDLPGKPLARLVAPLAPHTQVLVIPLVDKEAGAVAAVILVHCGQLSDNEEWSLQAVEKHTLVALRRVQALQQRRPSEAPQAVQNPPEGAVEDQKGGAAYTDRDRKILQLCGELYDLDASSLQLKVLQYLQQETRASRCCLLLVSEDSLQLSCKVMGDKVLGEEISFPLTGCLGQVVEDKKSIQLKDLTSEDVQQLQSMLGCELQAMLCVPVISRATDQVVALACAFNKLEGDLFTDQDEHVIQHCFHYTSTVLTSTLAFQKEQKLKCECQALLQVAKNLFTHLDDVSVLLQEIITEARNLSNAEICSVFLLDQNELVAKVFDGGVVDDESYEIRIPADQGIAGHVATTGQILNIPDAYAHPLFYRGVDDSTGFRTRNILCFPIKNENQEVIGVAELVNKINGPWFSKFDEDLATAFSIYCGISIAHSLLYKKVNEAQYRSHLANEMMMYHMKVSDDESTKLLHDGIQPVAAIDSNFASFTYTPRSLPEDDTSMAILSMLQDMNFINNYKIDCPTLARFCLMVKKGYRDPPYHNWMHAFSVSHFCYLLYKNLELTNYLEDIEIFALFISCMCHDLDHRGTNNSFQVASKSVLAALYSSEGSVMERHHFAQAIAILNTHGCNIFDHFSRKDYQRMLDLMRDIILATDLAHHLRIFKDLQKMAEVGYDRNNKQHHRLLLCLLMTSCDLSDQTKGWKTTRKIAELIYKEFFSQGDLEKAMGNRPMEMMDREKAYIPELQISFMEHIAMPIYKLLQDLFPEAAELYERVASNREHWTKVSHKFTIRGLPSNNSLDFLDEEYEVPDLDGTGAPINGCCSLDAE
- Protocol: PDE2 fluorescence polarization (IMAP FP) assay, rhesus PDE2A3
- Assay type: biochemical, rhesus macaque
- Experimental setup: Lab B, read-out: Rhesus PDE2 Ki (nM) Lab B
Value kind: Ki (nM)

[
  {
    "Compound": "CC(C)C(c1ccc(C(F)(F)F)cc1)n1nc(CO)c2c(=O)[nH]c(O)nc21 (single isomer, unassigned) [Example 12]",
    "Value kind": "Ki",
    "Units symbol": "nM",
    "Meas value": 192
  },
  {
    "Compound": "CC(c1ccc(C(C)(F)F)cc1)n1nc(CF)c2c(=O)[nH]c(N(C)C)nc21 (single isomer, unassigned) [Example 195]",
    "Value kind": "Ki",
    "Units symbol": "nM",
    "Meas value": 0.14
  },
  {
    "Compound": "C[C@@H](c1ccc(C(F)(F)F)cc1)n1nc(CCO)c2c(=O)[nH]c(O)nc21 [Example 293]",
    "Value kind": "Ki",
    "Units symbol": "nM",
    "Meas value": 12
  }
]

###

- Measured on: human PDE2A1 (Homo sapiens (Human), UniProt O00408)
- Sequence (O00408 other isoform, or with tags, fused parts or gaps): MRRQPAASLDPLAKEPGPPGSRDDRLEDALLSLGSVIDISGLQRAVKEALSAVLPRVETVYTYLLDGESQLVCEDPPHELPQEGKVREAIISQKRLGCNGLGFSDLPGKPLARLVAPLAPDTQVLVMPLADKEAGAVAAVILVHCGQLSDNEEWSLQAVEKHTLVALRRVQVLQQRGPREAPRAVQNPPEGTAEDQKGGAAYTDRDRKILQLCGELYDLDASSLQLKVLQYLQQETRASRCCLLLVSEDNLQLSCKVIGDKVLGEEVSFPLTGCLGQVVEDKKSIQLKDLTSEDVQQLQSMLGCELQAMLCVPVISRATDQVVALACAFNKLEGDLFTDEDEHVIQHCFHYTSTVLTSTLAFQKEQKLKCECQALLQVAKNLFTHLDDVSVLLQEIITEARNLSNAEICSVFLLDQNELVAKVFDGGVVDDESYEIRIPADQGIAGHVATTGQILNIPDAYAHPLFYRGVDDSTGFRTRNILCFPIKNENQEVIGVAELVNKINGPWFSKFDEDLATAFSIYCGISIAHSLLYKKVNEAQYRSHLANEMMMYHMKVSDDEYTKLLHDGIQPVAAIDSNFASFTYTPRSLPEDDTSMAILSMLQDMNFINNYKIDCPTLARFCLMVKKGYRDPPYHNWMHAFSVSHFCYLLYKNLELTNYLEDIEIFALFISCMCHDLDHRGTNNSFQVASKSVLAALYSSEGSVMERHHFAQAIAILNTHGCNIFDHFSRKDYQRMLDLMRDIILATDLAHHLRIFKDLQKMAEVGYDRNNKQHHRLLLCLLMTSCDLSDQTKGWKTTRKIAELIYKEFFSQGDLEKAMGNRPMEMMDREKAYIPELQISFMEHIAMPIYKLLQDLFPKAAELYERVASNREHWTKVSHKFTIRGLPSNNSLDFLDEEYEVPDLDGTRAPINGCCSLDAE
- Protocol: PDE selectivity IMAP FP assay, human PDE2A1
- Assay type: biochemical
- Experimental setup: Human PDE2; Lab B; read-out: Human PDE2 Ki (nM) Lab B
Below, each entry is listed alongside its reported log10(Ki).
Value kind: log10(Ki) (log10 of the value in nM)

[
  {
    "Compound": "CNc1nc2c(c(CO)nn2C(c2ccc(C(C)(F)F)cc2)C(C)C)c(=O)[nH]1 (single isomer, unassigned) [Example 359]",
    "log10(Ki)": -0.48
  },
  {
    "Compound": "C[C@@H](c1ccc(C(F)(F)F)cc1)n1nc(CC#N)c2c(=O)[nH]c(O)nc21",
    "log10(Ki)": 0.67
  },
  {
    "Compound": "CC(c1ccc(CC(F)(F)F)cc1)n1nc(CO)c2c(=O)[nH]c(N(C)C)nc21 (single isomer, unassigned) [Example 71]",
    "log10(Ki)": -0.12
  },
  {
    "Compound": "CCC(c1ccc(C(C)(F)F)c(F)c1)n1nc(CF)c2c(=O)[nH]c(N(C)C)nc21 (single isomer, unassigned) [Example 217]",
    "log10(Ki)": -1.80
  },
  {
    "Compound": "CCC(c1ccc(C(F)(F)F)cc1F)n1nc(CF)c2c(=O)[nH]c(N(C)C)nc21 (single isomer, unassigned) [Example 198]",
    "log10(Ki)": -1.32
  },
  {
    "Compound": "CCC(c1ccc(C(C)(F)F)c(F)c1)n1nc(CO)c2c(=O)[nH]c(N(C)C)nc21 (single isomer, unassigned) [Example 112]",
    "log10(Ki)": -0.08
  }
]

Values compiled from patent US10174037B2.
